test: Baclofen solubilization study in multivalent physiologic ion (MPI) solution; type: physicochemical; details: aqueous buffer, thermodynamic from solid, rapidly achieved without sonication or excessive agitation, read-out: solubility of baclofen in MPI solution
measured property: solubility (mg/mL)
State just the number; it will be interpreted in mg/mL.

Q: Answer with reported solubility of NCC(CC(=O)O)c1ccc(Cl)cc1 (stereo not shown)
A: 6

====

assay: Baclofen solubilization study in multivalent physiologic ion (MPI) solution; format: physicochemical; conditions: aqueous buffer, thermodynamic from solid, MPI pH 6.0-8.0, 37° C., aliquots at 2, 5 and 30 min, HPLC, read-out: baclofen concentration achieved in MPI solution
measured property: solubility

Q: Answer with reported solubility of NCC(CC(=O)O)c1ccc(Cl)cc1 (stereo not shown)
A: > 4000 µg/mL
